Assignment: determine reported PBM binding z-score for the given sequences.
Test system: VDR homodimer (NR concentration 270 nM)
Assay: PBM binding z-score (relative to random genomic background probes); higher = stronger binding; sequences stand for … in GC…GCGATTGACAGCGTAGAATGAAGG
Give the figure only, with no unit attached.

# input Please report PBM binding z-score for the following sequence: AGTCAAAGATCAGGACGAGGTAACGTAAAGCACG
# output -0.321

# input Please report PBM binding z-score for the following sequence: CCTCTTAGTTGACCATAAGGGCAACCGAAGCTCG
# output 0.985

# input Please report PBM binding z-score for the following sequence: AGAGTGAGGTTATACGTAGATCAGGGAAGAAAGT
# output 1.41

# input Please report PBM binding z-score for the following sequence: CCTTACGGGTCACGAAGTTATAGCACGACGAGCG
# output 0.721

# input Please report PBM binding z-score for the following sequence: GCTAACGGGTCAAAGGTTATAGCATGAATAGAAT
# output 1.33

# input Please report PBM binding z-score for the following sequence: CCTCGTTGGTCAGGAGGTCACACACCGGATATGA
# output 2.22

# input Please report PBM binding z-score for the following sequence: ATCTCTAGGTAAAAGATCAGTGAATCCCGAGGAT
# output -0.0729

# input Please report PBM binding z-score for the following sequence: CGTCCATGGTCAAAGGTCAGTGAAGAGATGACGG
# output 0.771

# input Please report PBM binding z-score for the following sequence: CCTTACGGGTCACTGCAGGTTATAGCATCGGAGT
# output 1.17

# input Please report PBM binding z-score for the following sequence: GCTAGCAGGCCATTTGGGTCACACAATGACGGGC
# output 0.18

# input Please report PBM binding z-score for the following sequence: TCTCAGAGGACACGAAGGTCAGAGCTTTCCAGAG
# output 1.62

# input Please report PBM binding z-score for the following sequence: TCGAGAAGGTTAGTCGGGGCATTCAGCCAACATA
# output 1.2
